Experiment: A qHTS for Small Molecule Inhibitors of Shiga Toxin; further: 0% is about no effect
Conditions: Vero cells, Shiga toxin protein synthesis inhibition reporter; at 38.7 µM, hits give high values
Among all 290,000 compounds or so, about 27,000 (9.3%) were called active. This excerpt belongs to a sample that is enriched for actives.
I'd appreciate it if you could supply inhibition values for the items below.
Give the value, in units of %, as a plain number.

Quick one: inhibition for O=C(CN1CCN(Cc2ccccc2)CC1)Nc1ccc(F)c(F)c1 ? 14.5

Entry COc1ccc(Nc2oc(-c3ccccc3Cl)nc2C#N)cc1 please 20.6

Same question, CCNC(=O)CSc1nc(-c2ccccc2)cs1 this time 74.3

What do we get for Cc1cc2ncn(CCCCOc3ccccc3)c2cc1C ? -3.93

Same question, O=C(Cc1ccccc1)Nc1cccc(C(=O)N/N=C/c2ccco2)c1 this time 23.9

Can you check Cc1cccc(NS(=O)(=O)c2ccc(-c3cnc(C4CC4)o3)cc2)c1 next? 14.4

Follow-up item: O=C(NCCS(=O)(=O)c1ccc(Br)cc1)c1ccccc1Cl -1.37

Here is the next compound: COc1cccc2c(N/N=C/c3ccco3)cc(C)nc12 63.5

Next compound up: CCOC(=O)CSc1nnc(CNc2nc(-c3ccccc3)cs2)n1C 9.53

Next record, please: CCn1cc(C(=O)NCCC(=O)NCCO)c(=O)c2cc3c(cc21)OCO3 -8.77

Field entry: COc1ccc(Cl)cc1NC(=O)CN(C)C(=O)CCCc1c[nH]c2ccccc12 -2.46

Request: CCOc1ccc(Nc2oc(Cc3ccccc3)nc2C#N)cc1 58.5

And then Cc1ccc(CC2CC(=O)N(c3cc(C)ccc3C)C2=O)cc1 (stereo not given) , what is it? -11.4

Then this compound: COc1cc(C(=O)N/C(=C\c2cn(C)c3ccccc23)C(=O)N2CCOCC2)cc(OC)c1OC -2.55

Same read-out for COc1ccccc1/C=N\Nc1cc(C)nc(-n2nc(C)cc2C)n1 ? -8.59

Again, but for CCn1c(C)cc(=O)cc1-c1ccc(Cl)cc1 -5.82

What do you have for CCOc1ccccc1NC(=O)C1CCCN(S(=O)(=O)c2ccccc2)C1 (stereo not given) ? -4.05

Would you mind doing CCc1ccc2c(c1)C1(NN=C(c3ccccc3)S1)C(=O)N2 (stereo not given) as well? 105

Ok, now Cc1ccccc1-c1nc(C#N)c(NCc2ccco2)o1 71.9

Now consider Cc1ccc(F)c(NC(=O)CCc2ccccc2)c1 . 70.1

Now try CCCCc1nc2ccccc2c(=O)n1NC(=O)c1c(O)c2cccc3c2n(c1=O)CC3 . 28.4

Thanks! And N#CCC(=O)N/N=C/c1ccc(SCC(=O)Nc2ccccc2)o1 ? 17.4

Entry Cc1cccc(OCC(=O)NCCCNC(=O)c2ccccn2)c1 please -11.4

Consider next the compound CC(NC(=O)COc1ccc(-c2ccccc2)cc1)C1CCCO1 (stereo not given) in the same way. 12

What do you get for C=CCc1ccccc1OCC(O)CN1CCN(CCO)CC1 (stereo not given) ? -5.91

Cool, now CCCn1nnc(NC(=O)COc2ccc(CC)cc2)n1 3.59

Same question, CCOCCOC(=O)C(C)Oc1ccc(Oc2ncc(C(F)(F)F)cc2Cl)cc1 (stereo not given) this time -6.29

What would you report for CCCOc1cccc(C(=O)NCCCNC(=O)c2cccnc2)c1 ? -9.24

Another compound to look at: CCCc1nc2ccccc2c(=O)n1NC(=O)c1c(O)c2ccccc2[nH]c1=O 110

Record: Clc1ncn(CCOc2ccccc2)c1Cl -16.2

Now try COC(=O)c1cccc(N(C(=O)c2ccco2)C(C(=O)NC2CCCC2)c2ccco2)c1 (stereo not given) . -1.98

Can you check COc1ccc(C(CNC(=O)COc2ccc([N+](=O)[O-])cc2)N2CCCCC2)cc1 (stereo not given) next? -4.67

Another compound: CCCCn1c(SCC(=O)N2CCOCC2)nc2c1c(=O)n(C)c(=O)n2C -5.05

Then this compound: Cc1cccc(OCC(=O)Nc2ccccc2F)c1 74.7

Same lookup for COc1ccc(C(=O)CN(C(=O)c2ccc(Cl)cc2)N2C(=O)c3ccccc3C2=O)cc1 , please. -9

Entry O=C(CCc1ccccc1)NNc1ccc(F)cc1 please -4.35

Input O=C(Oc1ccccc1C(=S)N1CCCCC1)c1cc([N+](=O)[O-])cc([N+](=O)[O-])c1 13

Could you do the same for O=C(CSCC(=O)Nc1cccc([N+](=O)[O-])c1)Nc1ccccc1 , please? 7.24

Query N#Cc1nc(Cc2cccc3ccccc23)oc1NCc1ccc2c(c1)OCO2 next 12.3

Request: Cc1cccc(OCCC(=O)Nc2ccccc2C(N)=O)c1 5.43
